# assayed_system: 5-hydroxytryptamine receptor 1D (Homo sapiens)
# Sequence (P28221 whole entry): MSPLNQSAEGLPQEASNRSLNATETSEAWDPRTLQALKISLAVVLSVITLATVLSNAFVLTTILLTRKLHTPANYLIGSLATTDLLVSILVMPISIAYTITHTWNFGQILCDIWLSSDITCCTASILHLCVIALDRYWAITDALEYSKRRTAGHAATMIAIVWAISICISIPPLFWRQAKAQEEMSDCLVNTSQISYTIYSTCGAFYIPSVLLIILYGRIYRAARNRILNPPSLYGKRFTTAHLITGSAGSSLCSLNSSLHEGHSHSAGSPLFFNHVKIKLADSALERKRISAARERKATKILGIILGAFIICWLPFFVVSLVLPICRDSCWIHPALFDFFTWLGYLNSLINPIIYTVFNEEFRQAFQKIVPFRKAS
observable: Ki

Problem: What value of Ki has been reported for the following compound? C[C@@H]1CNC[C@H]2Cc3ccc(COCC4CC4)nc3N21
Solution: > 0.36 µM

====

# assayed_system: Serotonin 3 (5-HT3) receptor
# assay_info: Binding affinity to 5HT3 receptor
# Type: protein-complex assay, Homo sapiens
pKi: −log10 of the molar value.
observable: pKi

Problem: What value of pKi has been reported for the following compound? C[C@@H]1CNC[C@H]2Cc3ccc(COCC4CC4)nc3N21
Solution: < 6.00

====

# assay_info: Binding affinity to sodium channel
pKi: −log10 of the molar value.
observable: pKi

Problem: What value of pKi has been reported for the following compound? C[C@@H]1CNC[C@H]2Cc3ccc(COCC4CC4)nc3N21
Solution: < 6.00
